Cited source for all entries: PubChem BioAssay (NCI)

Reported values of growth inhibition for individual entries
Experiment: NCI Yeast Anticancer Drug Screen. Data for the cln2 rad14 strain (AID 165);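 note: 0% = growth equal to vehicle treated cultures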
Details: S. cerevisiae cln2 rad14 strain, at 50.0 µM, active compounds read high
The panel holds about 79,000 compounds, 15% with a hit somewhere; the sample as a whole holds those more often.
Kindly provide the numeric value in % only, without the unit symbol.

{"columns": ["COMPOUND", "MEASUREMENT_UNITS", "ENDPOINT_RESULT"],
 "data": [
  ["O=C/C=C/c1ccccc1.[Fe+2].[c-]1[c-][c-][cH-][c-]1.[c-]1[c-][c-][cH-][c-]1", "%", 7.85],
  ["O=[As](O)(O)c1ccc(N=Nc2ccc([As](=O)(O)O)cc2)cc1", "%", 6.8],
  ["Oc1cccc(-c2ccccc2)c1", "%", 5.35],
  ["CC(=O)OC1CCC2(CO)C(CCC3C4CCC(=O)C4(C)CCC32)C1 (stereo unspecified)", "%", 11.9]
]}

Param item = `CCCc1c(C#N)c(S)[nH]c(=S)c1C#N` ; retrieve measured growth inhibition.
-5.65

growth inhibition for C[N+](C)(C)CC1CCc2ccccc2C1=O (stereo unspecified) ?
50.2
